Origin of the recorded values: patent US20240270821A1

Hi there, I'd appreciate the recorded Relative cAMP EC50 for every entry that follows.
target: hGLP-1R (Homo sapiens, UniProt P43220); test: cell-based or functional assay
Sequence (P43220 24-463): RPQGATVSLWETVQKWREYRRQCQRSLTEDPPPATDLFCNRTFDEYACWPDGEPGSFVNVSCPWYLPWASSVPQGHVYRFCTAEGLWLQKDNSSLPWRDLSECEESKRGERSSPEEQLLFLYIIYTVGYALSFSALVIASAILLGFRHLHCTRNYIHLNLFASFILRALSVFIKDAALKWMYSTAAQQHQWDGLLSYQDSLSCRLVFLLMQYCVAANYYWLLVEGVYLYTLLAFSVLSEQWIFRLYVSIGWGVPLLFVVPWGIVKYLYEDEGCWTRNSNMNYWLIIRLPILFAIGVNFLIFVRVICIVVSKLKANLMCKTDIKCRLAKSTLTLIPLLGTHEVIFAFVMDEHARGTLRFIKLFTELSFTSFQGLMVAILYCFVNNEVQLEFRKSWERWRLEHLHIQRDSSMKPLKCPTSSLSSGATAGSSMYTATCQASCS
Don't forget the unit after the number, please.

stdin: Entry YXQGTFTSDFSKXLDKKAQXQFIEYLLEGGPSSGAPPPSEG (synthetic construct; SITE 2: note = 2-Aminoisobutyric Acid; SITE 13: note = alpha-methyl-leucine; SITE 17: note = Lysine is chemically modified through conjugation of the epsilon-amino group of the Lysine side chain with (2-[2-(2-Amino-ethoxy)-ethoxy]-acetyl)-(gamma-Glu)-CO-(CH2) 16-CO2H; SITE 20: n) [Example 51] has what Relative cAMP EC50?
stdout: 5.8 nM

stdin: Also YXQGTXTSDXXIXLDXKAQXXFIEXLTEGGPSSGEPPPSGTGE (synthetic construct; SITE 2: note = 2-Aminoisobutyric Acid; SITE 6: note = alpha-methyl-2-fluoro-L-phenylalanine; SITE 10: note = 3-(4-Pyridyl)-L-alanine; SITE 11: note = alpha-methyl-L-serine; SITE 13: note = alpha-methyl-leucine; SITE 16: note = L-ornithine; SITE 17: note = Lysine is chemically mo) [Example 543] ?
stdout: 0.41 nM

stdin: Moving on to YXQGTFTSDFSKXLDKKAQXAFIEWLLAGGPSSGEPPPSGE (Aib, αMeL; acylated Lys; C-term amide; synthetic construct; SITE 2: note = 2-Aminoisobutyric Acid; SITE 13: note = alpha-methyl-leucine; SITE 17: note = Lysine is chemically modified through conjugation of the epsilon-amino group of the Lysine side chain with (2-[2-(2-Amino-ethoxy)-ethoxy]-acetyl)-(gamma-Glu)-CO-(CH2) 18-CO2H; SITE 20: n) [Example 21]
stdout: 2.7 nM
